# system: HIF-1 (HIF-1alpha/HIF-1beta (ARNT) heterodimer) (Homo sapiens?, UniProt Q16665;P27540 Q16665:1-826,P27540:2-789)
# Sequence (Q16665 whole entry, chain 1 of 2): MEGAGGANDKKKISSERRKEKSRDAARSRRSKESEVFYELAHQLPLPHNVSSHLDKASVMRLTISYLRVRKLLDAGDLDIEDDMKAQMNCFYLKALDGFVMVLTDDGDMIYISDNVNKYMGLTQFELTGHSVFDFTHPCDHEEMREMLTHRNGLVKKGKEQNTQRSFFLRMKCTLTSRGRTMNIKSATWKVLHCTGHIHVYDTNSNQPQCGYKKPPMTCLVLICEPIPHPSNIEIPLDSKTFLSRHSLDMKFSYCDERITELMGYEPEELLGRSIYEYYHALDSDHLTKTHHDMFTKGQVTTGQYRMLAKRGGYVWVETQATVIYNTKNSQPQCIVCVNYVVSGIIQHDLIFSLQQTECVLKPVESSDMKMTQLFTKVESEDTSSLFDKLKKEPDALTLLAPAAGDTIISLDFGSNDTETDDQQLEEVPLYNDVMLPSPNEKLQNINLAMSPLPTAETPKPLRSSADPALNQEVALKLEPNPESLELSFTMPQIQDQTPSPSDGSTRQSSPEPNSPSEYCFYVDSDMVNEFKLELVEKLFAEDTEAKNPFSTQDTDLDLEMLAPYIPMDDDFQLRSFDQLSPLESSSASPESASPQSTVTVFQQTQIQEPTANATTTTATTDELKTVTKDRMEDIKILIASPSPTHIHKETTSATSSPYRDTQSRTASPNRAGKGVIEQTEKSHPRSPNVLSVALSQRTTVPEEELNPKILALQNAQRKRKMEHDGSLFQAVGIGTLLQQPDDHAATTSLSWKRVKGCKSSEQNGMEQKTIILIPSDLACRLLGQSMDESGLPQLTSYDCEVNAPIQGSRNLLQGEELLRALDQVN
# Sequence (P27540 2-789, chain 2 of 2): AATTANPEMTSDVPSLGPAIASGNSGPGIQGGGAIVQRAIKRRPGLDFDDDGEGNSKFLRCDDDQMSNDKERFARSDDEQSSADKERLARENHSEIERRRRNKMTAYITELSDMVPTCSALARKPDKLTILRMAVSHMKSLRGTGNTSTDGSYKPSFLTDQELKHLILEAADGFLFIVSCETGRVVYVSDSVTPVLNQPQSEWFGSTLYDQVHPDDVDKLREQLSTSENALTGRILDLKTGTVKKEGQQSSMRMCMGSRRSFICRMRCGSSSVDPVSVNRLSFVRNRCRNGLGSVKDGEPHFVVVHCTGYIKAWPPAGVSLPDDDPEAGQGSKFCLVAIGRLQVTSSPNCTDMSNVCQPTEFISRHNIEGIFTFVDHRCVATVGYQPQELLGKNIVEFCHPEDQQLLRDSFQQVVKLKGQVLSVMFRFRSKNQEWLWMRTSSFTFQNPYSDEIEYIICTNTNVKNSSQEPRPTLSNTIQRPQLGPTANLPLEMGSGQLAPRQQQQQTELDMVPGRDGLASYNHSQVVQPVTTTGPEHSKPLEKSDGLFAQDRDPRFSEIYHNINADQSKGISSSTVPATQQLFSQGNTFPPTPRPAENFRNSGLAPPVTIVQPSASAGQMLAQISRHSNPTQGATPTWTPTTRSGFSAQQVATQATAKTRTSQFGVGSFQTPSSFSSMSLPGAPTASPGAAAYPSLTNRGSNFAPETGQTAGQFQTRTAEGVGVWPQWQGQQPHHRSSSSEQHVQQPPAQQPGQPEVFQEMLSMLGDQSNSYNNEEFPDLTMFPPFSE
# experimental.protocol: competition; TransAM
# assay.conditions: protein: extract; tags: none (endogenous, nuclear extract)
I would appreciate it if you labelled entries y when binding signal is 2 ratio or higher, otherwise n.

Use the examples below as a reference point.
binder | group
decoy 953 (dsDNA) DNA 1: CCAGCGTACGTACCTCAGG DNA 2: CCTGAGGTACGTACGCTGG | y
decoy 967 (dsDNA) DNA 1: CCAGCATACGTGCCTCAGG DNA 2: CCTGAGGCACGTATGCTGG | n
decoy 877/878 (dsDNA) DNA 1: ACCGTACGTGCTGCTA DNA 2: TAGCAGCACGTACGGT | y

Query string: Does the binder decoy 991 (dsDNA) DNA 1: CCAGCGTACGTGCATCAGG DNA 2: CCTGATGCACGTACGCTGG have recorded binding signal that is 2 ratio or more?
Result string: n

Query string: State whether the measured binding signal reaches 2 ratio, counting equality as reaching it, for decoy 881/882 (dsDNA) DNA 1: GGCTGCAGGAGACGTGGAGAA DNA 2: TTCTCCACGTCTCCTGCAGCC
Result string: y

Query string: Check the entry decoy 905 (dsDNA) DNA 1: GATCGCCCTACGTGCTGTCTCAGATC DNA 2: GATCTGAGACAGCACGTAGGGCGATC : does binding signal equal or exceed 2 ratio?
Result string: n

Query string: Kindly determine if binding signal recorded for decoy 911 (dsDNA) DNA 1: CACAGCGTACGTGCTGTCTCA DNA 2: TGAGACAGCACGTACGCTGTG is above or exactly 2 ratio.
Result string: n
